Numbers sourced from patent US20230416239A1.

- assayed.system: IL-13 (Homo sapiens)
- Sequence (P35225 25-146, species assumed): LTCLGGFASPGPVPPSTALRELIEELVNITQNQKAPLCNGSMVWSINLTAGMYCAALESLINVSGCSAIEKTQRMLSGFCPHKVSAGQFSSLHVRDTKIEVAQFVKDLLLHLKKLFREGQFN
- experimental.protocol: Immunoassay binding test, IL-13
- condition.parameters: 100 μM
observation.type: BINDING IL13 % Neutra at 100 μM
Report as: number unit

// below: answered compounds
compound: CCCN(CCOCCN(Cc1cccnc1F)Cc1cn(S(=O)(=O)c2ccccc2)c2ccccc12)C1CCCC1 [Compound 106]
recorded.result: 32.1%
--
compound: O=S(=O)(c1ccccc1)n1cc(CN(CCCCN(C2CCC2)C2CCC2)Cc2cccnc2F)c2ccccc21
recorded.result: 87.9%
--
compound: CN(CCCCN(Cc1cccnc1F)Cc1cn(S(=O)(=O)c2ccccc2)c2ncccc12)C1CCCCC1
recorded.result: 75.2%
--
compound: Fc1cc(CN(Cc2cn(-c3cccc(C(F)(F)F)c3)c3ccccc23)CC2CCCN(C3CCCCC3)C2)ccn1 (stereo not drawn)
recorded.result: 97.5%
--
compound: FC(F)(F)c1cccc(-n2cc(CN(Cc3cccnc3)CC3CCCN(C4CCCCC4)C3)c3ccccc32)c1 (stereo not drawn)
recorded.result: 92.2%
--
compound: O=S(=O)(NCCCCN(Cc1cccnc1F)Cc1cn(S(=O)(=O)c2ccccc2)c2ccccc12)N1CCCCC1
recorded.result: 0%
--
compound: CN(CCCCN(Cc1cccnc1)Cc1cn(-c2cccc(C(F)(F)F)c2)c2ccccc12)C1CCCCC1
recorded.result: 85.8%
--
compound: CCN(CCOCCN(Cc1cccnc1F)Cc1cn(S(=O)(=O)c2ccccc2)c2ccccc12)C1CCCC1
recorded.result: 66.1%

For each of the compounds below, note its BINDING IL13 % Neutra at 100 μM.
1. O=S(=O)(NCCCCN(Cc1cccnc1F)Cc1cn(S(=O)(=O)c2ccccc2)c2ccccc12)N1CCCCCC1
2. O=S(=O)(c1ccccc1)n1cc(CN(CCCCCNC2CCCCC2)Cc2cccc(F)n2)c2ccccc21
3. FC(F)(F)c1cccc(-n2cc(CN(CCCNC3CCCCC3)Cc3cccnc3)c3ccccc32)c1

1: 0%; 2: 89.9%; 3: 91.1%

Can you give me BINDING IL13 % Neutra at 100 μM for all of these, one by one?
1. FC(F)(F)c1cccc(-n2cc(CN(CCCNC3CCCCC3)Cc3ccncc3)c3ccccc32)c1
2. Fc1ncccc1CN(Cc1cn(-c2cccc(C(F)(F)F)c2)c2ccccc12)CC1CCCN(C2CCCCC2)C1 (stereo not drawn)
3. CC(=O)NCCCCN(Cc1cccnc1F)Cc1cn(S(=O)(=O)c2ccccc2)c2ccccc12
4. CCCN(CCCCN(Cc1cccnc1F)Cc1cn(S(=O)(=O)c2ccccc2)c2ccccc12)C1CCCC1
5. O=[N+]([O-])c1ccccc1S(=O)(=O)NCCCN(Cc1cccnc1)Cc1cn(S(=O)(=O)c2ccccc2)c2ccccc12
6. O=S(=O)(c1ccccc1)n1cc(CN(CCCCCNCc2cccnc2F)Cc2cccnc2F)c2ccccc21
7. O=S(=O)(c1ccccc1)n1cc(CN(CCCCNC2CCCCC2)Cc2cccc(F)n2)c2ccccc21
8. O=S(=O)(c1ccccc1)n1cc(CN(CCCCNC2CCCC2)Cc2cccnc2F)c2ccccc21

1. 58.2%
2. 86.3%
3. 0%
4. 90.2%
5. 0%
6. 67.9%
7. 86.5%
8. 89.7%
